The origin of these recorded values is the Immune Epitope Database (IEDB).

# Experimental System: HLA-A*30:01
# Procedure Details: IEDB peptide-MHC binding, purified MHC/competitive/fluorescence; filed as Kd, often an IC50 or EC50 that approximates it; bounds were set here for any values at or beyond the usual limits of such assays
# Protocol Conditions: source organism: Mycobacterium tuberculosis variant bovis BCG str. Pasteur 1173P2
pKd: −log10 of the molar value.
Observed Property: pKd

• KPIPHRTVL = 6.12

----------
# Experimental System: HLA-B*15:01
# Procedure Details: IEDB peptide-MHC binding, purified MHC/direct/fluorescence; filed as Kd, often an IC50 or EC50 that approximates it; bounds were set here for any values at or beyond the usual limits of such assays
# Protocol Conditions: source organism: SARS-CoV1
Observed Property: Kd

- FTERSDKSY: 497 nM
